Values compiled from patent US20230348616A1.

# assayed-target: T1, 7F
# T1 construct: also called HLA-A2 / point-mutant NY-ESO peptide 7F complex on T2 cells
# assay-explanation: flow cytometry on peptide-pulsed T2 cells, scFv 100 nM
measured-attribute: standardized gMFI

NYA-2061 (scFv, also called NYA-2061 tag adduct) scFv: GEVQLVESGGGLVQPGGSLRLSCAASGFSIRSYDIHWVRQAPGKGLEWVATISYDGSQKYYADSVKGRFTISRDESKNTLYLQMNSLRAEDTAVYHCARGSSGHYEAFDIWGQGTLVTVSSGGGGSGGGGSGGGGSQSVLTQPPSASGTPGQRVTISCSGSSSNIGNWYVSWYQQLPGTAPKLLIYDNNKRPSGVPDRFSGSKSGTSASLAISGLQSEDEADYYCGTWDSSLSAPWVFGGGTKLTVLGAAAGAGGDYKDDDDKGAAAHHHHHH :: 2.04
